The measurements presented in this section are drawn from ChEMBL document CHEMBL4346701.

Listed below: MIC values for each entry.
- Tested on: Staphylococcus aureus
- protocolDescription: Antibacterial activity against Quinolone-resistant Staphylococcus aureus CCARM 3519 assessed as reduction in bacterial cell growth incubated for 24 hrs by ELISA
- Type: functional
- condition: CCARM 3519, 24 h
Answer with a number only, understood to be in mg/L.

Below, 6 compounds whose answers are already recorded.
O=C(O)C(Cc1c[nH]c2ccccc12)N1C(=O)/C(=C/c2ccc3cc(OCc4ccccc4)ccc3c2)SC1=S (centres undefined) : 8
O=C(O)C(Cc1c[nH]c2ccccc12)N1C(=O)/C(=C/c2ccc(OCc3ccc(Br)cc3)cc2)SC1=S (centres undefined) : 2
COc1cccc(COc2ccc3cc(/C=C4\SC(=S)N(C(Cc5c[nH]c6ccccc56)C(=O)O)C4=O)ccc3c2)c1 (centres undefined) : 16
COc1ccccc1COc1ccc2cc(/C=C3\SC(=S)N(C(Cc4c[nH]c5ccccc45)C(=O)O)C3=O)ccc2c1 (centres undefined) : 8
COc1c(N2CCNC(C)C2)c(F)cc2c(=O)c(C(=O)O)cn(C3CC3)c12 (centres undefined) : 4
O=C(O)C(Cc1c[nH]c2ccccc12)N1C(=O)/C(=C/c2ccc3cc(OCc4ccc(Cl)cc4)ccc3c2)SC1=S (centres undefined) : 4

The compound listed as COc1cc(/C=C2\SC(=S)N(C(Cc3c[nH]c4ccccc34)C(=O)O)C2=O)ccc1OCc1ccc(Cl)cc1 (centres undefined) shows MIC equal to 4

The compound listed as COc1cc(/C=C2\SC(=S)N(C(Cc3c[nH]c4ccccc34)C(=O)O)C2=O)ccc1OCc1ccc(Br)cc1 (centres undefined) shows MIC equal to 8

The compound listed as Cc1ccc(COc2ccc(/C=C3\SC(=S)N(C(Cc4c[nH]c5ccccc45)C(=O)O)C3=O)cc2)cc1 (centres undefined) shows MIC equal to 16

The compound listed as O=C(O)C(Cc1c[nH]c2ccccc12)N1C(=O)/C(=C/c2ccc3cc(OCc4ccc(Cl)cc4Cl)ccc3c2)SC1=S (centres undefined) shows MIC equal to 8
